assayed.target: ABCA4 P1380L (Homo sapiens, UniProt P78363, P1380L)
Construct: expressed in transfected cells
Sequence (P78363 whole entry P1380L): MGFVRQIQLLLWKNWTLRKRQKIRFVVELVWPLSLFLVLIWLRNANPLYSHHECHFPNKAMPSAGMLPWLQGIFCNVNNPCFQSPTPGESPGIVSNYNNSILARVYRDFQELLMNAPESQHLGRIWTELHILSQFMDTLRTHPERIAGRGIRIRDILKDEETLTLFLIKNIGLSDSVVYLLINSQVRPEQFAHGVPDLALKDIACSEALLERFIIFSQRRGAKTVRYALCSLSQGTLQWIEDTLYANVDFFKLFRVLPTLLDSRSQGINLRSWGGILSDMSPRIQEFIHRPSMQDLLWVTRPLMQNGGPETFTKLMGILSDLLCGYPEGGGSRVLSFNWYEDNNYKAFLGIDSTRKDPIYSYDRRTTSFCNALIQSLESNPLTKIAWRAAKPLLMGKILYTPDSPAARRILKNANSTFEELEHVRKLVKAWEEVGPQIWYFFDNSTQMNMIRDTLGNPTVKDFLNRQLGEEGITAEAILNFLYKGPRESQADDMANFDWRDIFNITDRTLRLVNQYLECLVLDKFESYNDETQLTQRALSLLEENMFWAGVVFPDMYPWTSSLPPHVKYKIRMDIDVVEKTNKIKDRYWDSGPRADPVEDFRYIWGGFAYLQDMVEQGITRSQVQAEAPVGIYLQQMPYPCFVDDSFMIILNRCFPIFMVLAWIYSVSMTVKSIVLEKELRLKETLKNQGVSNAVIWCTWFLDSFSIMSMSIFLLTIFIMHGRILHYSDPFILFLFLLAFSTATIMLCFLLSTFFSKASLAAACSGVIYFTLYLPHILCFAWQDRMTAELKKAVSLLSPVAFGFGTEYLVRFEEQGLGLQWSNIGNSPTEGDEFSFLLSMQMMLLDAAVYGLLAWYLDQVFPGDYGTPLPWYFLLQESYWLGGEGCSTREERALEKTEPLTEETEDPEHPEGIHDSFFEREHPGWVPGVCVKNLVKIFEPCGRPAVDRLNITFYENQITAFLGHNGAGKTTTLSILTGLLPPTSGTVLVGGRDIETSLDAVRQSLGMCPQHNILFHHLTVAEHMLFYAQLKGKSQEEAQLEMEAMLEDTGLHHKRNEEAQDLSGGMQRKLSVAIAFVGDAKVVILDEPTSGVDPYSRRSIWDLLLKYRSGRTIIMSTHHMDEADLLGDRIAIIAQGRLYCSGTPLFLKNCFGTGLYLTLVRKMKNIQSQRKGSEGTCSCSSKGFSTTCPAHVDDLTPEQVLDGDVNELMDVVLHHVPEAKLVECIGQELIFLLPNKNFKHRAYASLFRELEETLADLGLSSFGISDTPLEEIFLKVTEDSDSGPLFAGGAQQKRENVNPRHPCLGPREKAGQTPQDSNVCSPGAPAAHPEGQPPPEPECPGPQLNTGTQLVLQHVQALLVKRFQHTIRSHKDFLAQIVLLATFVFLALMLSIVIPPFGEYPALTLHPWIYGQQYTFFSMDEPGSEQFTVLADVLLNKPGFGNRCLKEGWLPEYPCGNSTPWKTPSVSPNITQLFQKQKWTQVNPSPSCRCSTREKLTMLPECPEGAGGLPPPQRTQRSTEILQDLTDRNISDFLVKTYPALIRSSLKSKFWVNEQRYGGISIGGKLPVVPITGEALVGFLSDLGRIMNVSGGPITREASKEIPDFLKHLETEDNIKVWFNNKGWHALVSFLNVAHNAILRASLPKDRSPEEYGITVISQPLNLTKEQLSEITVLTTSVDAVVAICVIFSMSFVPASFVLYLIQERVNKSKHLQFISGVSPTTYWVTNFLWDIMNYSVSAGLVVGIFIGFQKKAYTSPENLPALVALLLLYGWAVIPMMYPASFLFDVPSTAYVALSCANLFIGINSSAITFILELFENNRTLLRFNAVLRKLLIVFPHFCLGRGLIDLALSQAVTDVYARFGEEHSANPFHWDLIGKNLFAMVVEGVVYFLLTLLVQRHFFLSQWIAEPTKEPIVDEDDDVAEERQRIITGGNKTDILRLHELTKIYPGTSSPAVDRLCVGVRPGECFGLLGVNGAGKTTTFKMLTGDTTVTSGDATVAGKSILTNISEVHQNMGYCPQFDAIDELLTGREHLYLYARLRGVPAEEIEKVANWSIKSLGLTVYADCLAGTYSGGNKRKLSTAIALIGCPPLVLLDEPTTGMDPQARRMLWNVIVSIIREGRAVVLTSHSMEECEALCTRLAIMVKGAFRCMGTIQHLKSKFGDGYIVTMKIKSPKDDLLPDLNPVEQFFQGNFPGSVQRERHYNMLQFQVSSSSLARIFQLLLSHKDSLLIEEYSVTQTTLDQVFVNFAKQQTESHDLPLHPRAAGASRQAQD
measurement.description: A4 correction dose-response assay: ABCA4 P1380L HiBit protein expression
Format: cell-based
test.conditions: HEK-293 cells stably expressing HiBit-tagged ABCA4 P1380L; 24 h treatment; top concentration 30 μM; read-out: ABCA4 P1380L EC50, Emax
Kindly state EC50 for each of the entries shown.

Task: // EC50 lookup, key: Cc1nc(C(F)(F)F)nc(C2CC2)c1Oc1nc(-c2cncc(C#N)c2)ccc1S(=O)(=O)Nc1cccnc1 [Compound I-310]
Output: > 25 µM

Task: Similarly, Cc1cc(C)c(Oc2nc(-c3cccc(C#N)n3)ccc2NS(C)(=O)=O)c(C)n1 [Compound I-241] ?
Output: > 25 µM

Task: Okay, and Cc1nc(C2CC2)c(Cl)cc1Oc1nc(-c2cncc(C#N)c2)ccc1NS(C)(=O)=O [Compound I-120] ?
Output: < 1 µM

Task: Same read-out for Cc1cc(C)c(Oc2nc(-c3cnc(C#N)c(Cl)c3)ccc2NS(C)(=O)=O)c(C)n1 [Compound I-8] ?
Output: < 1 µM

Task: Now consider CCS(=O)(=O)N(C)c1ccc(-c2cncc(C#N)c2)nc1Oc1c(C)cc(C(F)(F)F)nc1C1CC1 [Compound I-148] .
Output: < 1 µM

Task: // query: Cc1cc(C(F)F)nc(C2CC2)c1Oc1nc(-c2cncc(C#N)c2)ccc1NS(C)(=O)=O [Compound I-137]
Output: < 1 µM

Task: Next compound: Cc1cc(C)c(Oc2nc(-c3cncc(Cl)c3)ccc2NS(=O)(=O)Cc2ccccn2)c(C)c1 [Compound I-62]
Output: > 25 µM

Task: What do you have for Cc1cc(C(F)(F)F)nc(C2CC2)c1Oc1nc(-c2cncc(C#N)c2)ccc1N=S(C)(C)=O [Compound I-286] ?
Output: > 25 µM

Task: Proceed to Cc1nc(N2CC(F)(F)C2)nc(C)c1Oc1nc(-c2cncc(C#N)c2)ccc1NS(C)(=O)=O [Compound I-170]
Output: < 1 µM

Task: And Cc1nc(C2COC2)nc(C)c1Oc1nc(-c2cncc(C#N)c2)ccc1NS(C)(=O)=O [Compound I-174] ?
Output: 1 to 10 µM

Task: What do you have for Cc1cc(C)c(Oc2nc(-c3cncc(S(C)(=O)=O)c3)ccc2NS(C)(=O)=O)c(C)c1 [Compound I-278] ?
Output: 1 to 10 µM

Task: Here is the next compound: Cc1cc(C)c(Oc2nc(-c3cncc(Cl)c3)ccc2NS(=O)(=O)C2COC2)c(C)c1 [Compound I-41]
Output: < 1 µM

Task: Also CNS(=O)(=O)c1ccc(-c2cncc(C#N)c2)nc1Oc1c(C)nc(C(F)F)nc1C1CC1 [Compound I-313] ?
Output: 10 to 25 µM

Task: Would you mind doing CNS(=O)(=O)c1ccc(-c2cncc(C#N)c2)nc1Oc1c(C)nc(C(F)(F)F)nc1C1CC1 [Compound I-315] as well?
Output: > 25 µM

Task: Do the same for Cc1cc(C)c(Oc2nc(-c3cncc(C(C)(C)O)c3)ccc2NS(C)(=O)=O)c(C)n1 [Compound I-220] please
Output: > 25 µM

----------
assayed.target: ABCB4 WT (Homo sapiens)
Sequence (P21439 whole entry): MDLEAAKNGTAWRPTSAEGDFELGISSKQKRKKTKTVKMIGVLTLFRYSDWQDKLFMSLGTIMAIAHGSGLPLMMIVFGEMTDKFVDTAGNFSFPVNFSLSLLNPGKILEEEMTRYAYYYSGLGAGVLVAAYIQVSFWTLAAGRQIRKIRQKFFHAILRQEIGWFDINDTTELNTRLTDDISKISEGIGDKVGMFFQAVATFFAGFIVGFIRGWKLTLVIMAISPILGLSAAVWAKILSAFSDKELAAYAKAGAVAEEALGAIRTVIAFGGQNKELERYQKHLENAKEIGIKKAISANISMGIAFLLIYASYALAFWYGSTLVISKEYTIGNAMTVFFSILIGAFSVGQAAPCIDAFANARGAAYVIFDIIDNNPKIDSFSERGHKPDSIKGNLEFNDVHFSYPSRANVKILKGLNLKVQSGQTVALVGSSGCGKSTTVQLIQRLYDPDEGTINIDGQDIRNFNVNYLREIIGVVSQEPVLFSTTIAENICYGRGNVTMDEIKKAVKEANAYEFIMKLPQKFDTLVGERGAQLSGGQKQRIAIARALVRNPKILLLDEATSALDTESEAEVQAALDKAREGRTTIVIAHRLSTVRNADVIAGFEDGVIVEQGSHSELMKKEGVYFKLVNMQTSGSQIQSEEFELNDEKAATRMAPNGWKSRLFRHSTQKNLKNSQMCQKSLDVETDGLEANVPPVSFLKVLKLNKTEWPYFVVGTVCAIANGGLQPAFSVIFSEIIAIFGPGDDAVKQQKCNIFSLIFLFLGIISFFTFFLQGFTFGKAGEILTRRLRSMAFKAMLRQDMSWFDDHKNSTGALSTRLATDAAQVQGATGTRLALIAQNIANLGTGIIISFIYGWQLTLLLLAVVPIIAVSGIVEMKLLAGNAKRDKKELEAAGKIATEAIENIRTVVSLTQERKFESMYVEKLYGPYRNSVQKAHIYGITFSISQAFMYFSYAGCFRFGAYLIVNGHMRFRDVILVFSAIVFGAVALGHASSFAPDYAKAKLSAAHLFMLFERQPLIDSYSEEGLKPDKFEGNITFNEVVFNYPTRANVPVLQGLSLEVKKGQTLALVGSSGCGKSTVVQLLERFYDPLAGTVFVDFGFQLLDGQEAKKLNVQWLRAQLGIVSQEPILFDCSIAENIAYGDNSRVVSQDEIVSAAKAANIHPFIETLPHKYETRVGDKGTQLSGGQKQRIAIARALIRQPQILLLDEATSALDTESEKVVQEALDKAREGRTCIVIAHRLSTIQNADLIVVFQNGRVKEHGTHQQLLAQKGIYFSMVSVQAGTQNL
measurement.description: ABCB4 WT assay: HiBit protein expression
test.conditions: HEK-293 cells stably expressing HiBit-tagged ABCB4 WT; 24 h treatment; top concentration 30 μM; read-out: ABCB4 WT EC50, Emax
Kindly state EC50 for each of the entries shown.

Task: For the molecule shown here, Cc1cc(C)c(Oc2nc(-c3cncc(C#N)c3)ccc2NS(=O)(=O)C2COC2)c(C)c1 [Compound I-267] , give the reported EC50.
Output: < 1 µM

Task: And Cc1cc(C(F)(F)F)nc(C2CC2)c1Oc1nc(-c2cccc(C#N)c2)ccc1S(=N)(=O)C1CC1 (stereo not shown) [Compound I-295] ?
Output: ≥ 25 µM

Task: Then Cc1cc(C)c(Oc2nc(-c3cncc(Cl)c3)ccc2S(=O)(=O)N2CCCC2)c(C)c1 [Compound I-96] ?
Output: 1 to 10 µM

Task: Same thing, different molecule: Cc1cc(C)c(Oc2nc(-c3cncc(Cl)c3)ccc2S(=O)(=O)N(C)C)c(C)c1 [Compound I-97]
Output: 1 to 10 µM
